- Tested on: CCRIS mutagenicity, Ames/micronucleus/aberration tests
- assayNotes: CCRIS mutagenicity studies
- testConditions: Test System: AMES SALMONELLA TYPHIMURIUM; Strain/Indicator: TA98; Metabolic Activation: RAT, LIVER, S-9, AROCLOR 1254; Method: STANDARD PLATE
Calls of active or inactive are those of the source. How the calls were made is not given here.
Entry note: the call must match one of active, inactive

Consider the worked cases shown below.
ClCCCCl | inactive
CC(=O)Oc1ccccc1C(=O)Oc1ccccc1C(=O)O | inactive
CCBr | active
O=C1c2ccccc2C(=O)c2c1cc(O)c(O)c2O | active
Clc1cc2c3ccccc3ccc2c2ccccc12 | inactive

[Q] So what was the verdict on `N#CC1=Cc2cccc3cccc1c23` in this test?
[A] inactive

[Q] Query CC1NC(C(=O)O)Cc2c1[nH]c1ccccc21 (stereo not given) next
[A] inactive

[Q] Query `CCC(=O)n1ncc(Cl)c(Cl)c1=O` next
[A] inactive

[Q] Query NCC1CCC(C(=O)c2ccc(CCC(=O)O)cc2)CC1 (stereo not given) next
[A] inactive

[Q] Query CCOC(=O)C(Cl)C(C)=O (stereo not given) next
[A] inactive

[Q] Query O=C(c1ccccc1)C1OC1c1ccc(-c2ccccc2)cc1 (stereo not given) next
[A] inactive

[Q] Query `CC(=O)C1(c2ccccc2)CCNCC1` next
[A] inactive

[Q] Query `CC(=O)OCc1cocc2c(C=O)ccc1-2` next
[A] active

[Q] Query `ClC(Br)Br` next
[A] active

[Q] Query C=CCc1ccccc1OCC(O)CNC(C)C (stereo not given) next
[A] inactive
